These measurements were taken from PubChem BioAssay (EPA / NIEHS).

MEASURED_TARGET: CCAAT/enhancer-binding protein beta (Homo sapiens)
ASSAY_TEXT: ATG_C_EBP_CIS: Attagene CIS-FACTORIAL HepG2 Assay for human CCAAT/Enhancer Binding Protein (C/EBP) beta (AID 2282927)
CONDITIONS: HepG2 Attagene cis-factorial transcription factor reporter; actives raise or lower the signal
The source made the active and inactive calls. Rule for the calls: active = hit-call score of the fitted dose curve at least 0.9, where 1 is the maximum; inactive = score below 0.9.
Pick one and only one: active, inactive

Here's what some known entries look like.
| COMPOUND | MEASURED_TARGET | CLASS_LABEL |
| --- | --- | --- |
| CC(=O)S[C@@H]1CC2=CC(=O)CC[C@]2(C)[C@H]2CC[C@@]3(C)[C@@H](CC[C@@]34CCC(=O)O4)[C@H]12 | CCAAT/enhancer-binding protein beta (Homo sapiens) | inactive |
| COC(=O)CSc1cc(N=c2sc(=O)n3n2CCCC3)c(F)cc1Cl | CCAAT/enhancer-binding protein beta (Homo sapiens) | inactive |
| CCOC(=O)COc1cc(-n2ncc(C(F)(F)F)c(C)c2=O)c(F)cc1Cl | CCAAT/enhancer-binding protein beta (Homo sapiens) | inactive |
| CCOC(=O)C(C)Oc1ccc(Oc2nc3ccc(Cl)cc3o2)cc1 (stereo unspecified) | CCAAT/enhancer-binding protein beta (Homo sapiens) | inactive |

# input What call does the record list for `CCCCOCCOCCOCc1cc2c(cc1CCC)OCO2` ?
# output inactive

# input Also, `CCCOC(=O)NCCCN(C)C` please.
# output inactive

# input Also, CCCCOC(=O)C(C)Oc1ccc(Oc2ccc(C(F)(F)F)cn2)cc1 (stereo unspecified) please.
# output inactive

# input Also, CCOC(=O)C(C)Oc1ccc(Oc2cnc3cc(Cl)ccc3n2)cc1 (stereo unspecified) please.
# output inactive

# input Also, `O=C(O)C1(C(=O)Nc2ccc(Cl)cc2Cl)CC1` please.
# output inactive

# input Also, `COC(=O)c1c(Cl)nn(C)c1S(=O)(=O)NC(=O)Nc1nc(OC)cc(OC)n1` please.
# output active

# input Also, `Oc1ccc(C(c2ccc(O)cc2)C(Cl)(Cl)Cl)cc1` please.
# output inactive
